AC50 listing for selected compounds.
experimental_system: Muscarinic acetylcholine receptor M1 (Homo sapiens); further: assay procedure not described here
Sequence (P11229 whole entry): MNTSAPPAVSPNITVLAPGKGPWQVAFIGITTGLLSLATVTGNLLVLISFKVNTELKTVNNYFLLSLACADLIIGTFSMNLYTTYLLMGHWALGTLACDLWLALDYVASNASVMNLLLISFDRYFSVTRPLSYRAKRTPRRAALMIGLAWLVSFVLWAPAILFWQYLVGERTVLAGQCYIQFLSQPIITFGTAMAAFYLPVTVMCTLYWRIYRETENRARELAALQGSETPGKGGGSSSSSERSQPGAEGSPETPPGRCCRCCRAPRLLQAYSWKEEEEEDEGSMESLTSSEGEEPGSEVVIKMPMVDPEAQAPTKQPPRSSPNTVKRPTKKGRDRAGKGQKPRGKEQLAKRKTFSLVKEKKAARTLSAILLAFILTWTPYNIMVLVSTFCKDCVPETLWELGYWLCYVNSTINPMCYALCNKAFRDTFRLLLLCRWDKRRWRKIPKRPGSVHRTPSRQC
Format: functional

[
  {
    "compound": "O=C(O)c1cccc(-c2noc(-c3ccccc3F)n2)c1",
    "AC50": "> 10 µM"
  },
  {
    "compound": "O=C(CCCCCCC(=O)Nc1ccccc1)NO [VORINOSTAT]",
    "AC50": "> 30 µM"
  },
  {
    "compound": "O=C(O)CCCc1ccccc1 [PHENYLBUTANOIC ACID]",
    "AC50": "> 30 µM"
  },
  {
    "compound": "CC(C)Cc1ccc(CC(=O)O)cc1 [IBUFENAC]",
    "AC50": "> 30 µM"
  },
  {
    "compound": "N/N=c1/cc2c(n[nH]1)CCN(C(=O)c1ccccc1)C2 [ENDRALAZINE]",
    "AC50": "> 30 µM"
  }
]

Please look at the following compound next.
Record request: AC50 value, item NS(=O)(=O)c1cc2c(cc1Cl)NC(CC1CCCC1)NS2(=O)=O (stereo unspecified) [CYCLOPENTHIAZIDE]
> 30 µM

###

AC50 listing for selected molecules.
experimental_system: Adenosine receptor A3 (Homo sapiens); further: assay procedure not described here
Sequence (P0DMS8 whole entry): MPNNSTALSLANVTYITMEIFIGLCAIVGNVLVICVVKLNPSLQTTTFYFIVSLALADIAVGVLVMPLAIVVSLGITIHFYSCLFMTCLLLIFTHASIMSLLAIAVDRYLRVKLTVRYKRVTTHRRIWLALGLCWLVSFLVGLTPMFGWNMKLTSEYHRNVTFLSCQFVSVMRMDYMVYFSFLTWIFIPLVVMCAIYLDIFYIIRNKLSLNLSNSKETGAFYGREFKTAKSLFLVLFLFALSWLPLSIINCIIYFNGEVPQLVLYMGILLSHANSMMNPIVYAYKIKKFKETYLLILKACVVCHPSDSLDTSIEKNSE

Past entries and their recorded results:
[
  {
    "molecule": "CNC(=O)c1cc(Oc2ccc(NC(=O)Nc3ccc(Cl)c(C(F)(F)F)c3)cc2)ccn1",
    "assay_value": "1.88 µM"
  },
  {
    "molecule": "COC(=O)[C@H]1[C@@H](OC(=O)c2ccccc2)C[C@@H]2CC[C@H]1N2C",
    "assay_value": "> 30 µM"
  }
]

Record request: AC50 value, item COc1c(N2CCNC(C)C2)c(F)cc2c(=O)c(C(=O)O)cn(C3CC3)c12 (stereo not given)
> 10 µM

Record request: AC50 value, item CN(C)[C@@H]1C(O)=C(C(N)=O)C(=O)[C@@]2(O)C(O)=C3C(=O)c4c(O)ccc(Cl)c4[C@@H](O)[C@H]3C[C@@H]12
> 10 µM

Record request: AC50 value, item O=C(O)c1cc(-c2ccc(F)cc2F)ccc1O
> 10 µM

###

experimental_system: 3',5'-cyclic-AMP phosphodiesterase 4A (Homo sapiens, UniProt P27815); further: assay procedure not described here
Sequence (P27815 whole entry): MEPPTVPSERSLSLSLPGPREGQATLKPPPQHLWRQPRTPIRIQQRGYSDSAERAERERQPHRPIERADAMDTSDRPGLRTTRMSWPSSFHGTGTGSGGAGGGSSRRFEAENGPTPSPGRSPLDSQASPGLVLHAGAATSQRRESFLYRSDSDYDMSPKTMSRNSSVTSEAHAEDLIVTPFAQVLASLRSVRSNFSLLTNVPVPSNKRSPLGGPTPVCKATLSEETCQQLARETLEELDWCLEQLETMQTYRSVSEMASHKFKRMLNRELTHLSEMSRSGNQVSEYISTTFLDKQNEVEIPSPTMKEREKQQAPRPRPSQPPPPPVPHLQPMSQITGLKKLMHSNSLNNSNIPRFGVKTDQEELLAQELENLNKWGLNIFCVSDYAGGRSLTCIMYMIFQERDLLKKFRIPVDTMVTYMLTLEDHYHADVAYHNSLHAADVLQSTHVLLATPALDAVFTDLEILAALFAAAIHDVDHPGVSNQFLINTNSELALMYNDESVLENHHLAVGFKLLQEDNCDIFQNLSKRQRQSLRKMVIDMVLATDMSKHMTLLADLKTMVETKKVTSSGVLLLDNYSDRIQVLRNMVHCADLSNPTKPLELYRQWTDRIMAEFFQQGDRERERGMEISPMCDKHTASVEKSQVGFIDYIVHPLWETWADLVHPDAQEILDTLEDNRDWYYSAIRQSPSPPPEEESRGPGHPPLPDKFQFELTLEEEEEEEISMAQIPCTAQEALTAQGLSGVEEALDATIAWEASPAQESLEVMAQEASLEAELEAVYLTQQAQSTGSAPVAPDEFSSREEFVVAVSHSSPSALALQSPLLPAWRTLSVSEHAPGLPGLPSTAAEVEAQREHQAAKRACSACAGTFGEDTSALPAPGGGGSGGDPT
Format: functional
reported_metric: AC50

[
  {
    "molecule": "C#C[C@]1(O)CC[C@H]2[C@@H]3CCc4cc(O)ccc4[C@H]3CC[C@@]21C [ETHINYL ESTRADIOL]",
    "reported_metric": "AC50",
    "assay_value": "20.1 µM"
  },
  {
    "molecule": "CCS(=O)(=O)N1CC(CC#N)(n2cc(-c3ncnc4[nH]ccc34)cn2)C1 [BARICITINIB]",
    "reported_metric": "AC50",
    "assay_value": "> 30 µM"
  },
  {
    "molecule": "Sc1ncnc2nc[nH]c12 [MERCAPTOPURINE ANHYDROUS]",
    "reported_metric": "AC50",
    "assay_value": "> 30 µM"
  }
]

Record request: AC50 value, item COc1cc(NCc2ccc3nc(N)nc(N)c3c2C)cc(OC)c1OC [TRIMETREXATE]
7.19 µM

Record request: AC50 value, item C[N+]1(C)[C@@H]2C[C@@H](OC(=O)[C@H](CO)c3ccccc3)C[C@H]1[C@@H]1O[C@@H]12 [METHSCOPOLAMINE]
> 30 µM

Record request: AC50 value, item C[C@@H]1C[C@H]2[C@@H]3C[C@H](F)C4=CC(=O)C(Cl)=C[C@]4(C)[C@@]3(F)[C@@H](O)C[C@]2(C)[C@@]1(O)C(=O)CO [HALOMETASONE]
> 30 µM

###

AC50 listing for selected compounds.
experimental_system: Kappa-type opioid receptor (Homo sapiens, UniProt P41145); further: assay procedure not described here
Sequence (P41145 whole entry): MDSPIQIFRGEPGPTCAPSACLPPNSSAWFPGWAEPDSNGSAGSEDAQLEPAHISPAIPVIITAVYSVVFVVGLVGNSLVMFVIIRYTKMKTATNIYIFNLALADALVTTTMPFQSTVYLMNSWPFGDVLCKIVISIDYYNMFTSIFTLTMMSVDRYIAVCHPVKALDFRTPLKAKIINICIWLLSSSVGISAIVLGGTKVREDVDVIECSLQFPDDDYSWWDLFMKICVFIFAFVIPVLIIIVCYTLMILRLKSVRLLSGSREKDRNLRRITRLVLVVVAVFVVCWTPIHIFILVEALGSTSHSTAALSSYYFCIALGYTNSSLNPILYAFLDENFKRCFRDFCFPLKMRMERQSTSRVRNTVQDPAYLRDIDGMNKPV

Past entries and their recorded results:
[
  {
    "compound": "NC[C@H]1O[C@H](O[C@H]2[C@H](O)[C@@H](O[C@H]3O[C@H](CO)[C@@H](O)[C@H](N)[C@H]3O)[C@H](N)C[C@@H]2N)[C@H](O)[C@@H](O)[C@@H]1O",
    "AC50": "> 30 µM"
  },
  {
    "compound": "O=C(O)CCCc1ccccc1",
    "AC50": "> 30 µM"
  },
  {
    "compound": "CCOC(=O)[C@H](CCc1ccccc1)N[C@H]1CCCN2CCC[C@@H](C(=O)O)N2C1=O",
    "AC50": "> 30 µM"
  },
  {
    "compound": "O=C1CN=C(c2ccccc2)c2cc(Cl)ccc2N1CC(F)(F)F",
    "AC50": "20 µM"
  },
  {
    "compound": "Cc1cccc(C)c1NC(=O)C1CCCCN1C (stereo unspecified) [MEPIVACAINE]",
    "AC50": "> 30 µM"
  }
]

Reported AC50 for Kappa-type opioid receptor (Homo sapiens, UniProt P41145), given CN1C(=O)N(C)C2C1N(C)C(=O)N2C (stereo unspecified) ?
> 30 µM

###

This section lists AC50 readings for Histamine H3 receptor (Homo sapiens, UniProt Q9Y5N1).

Past entries and their recorded results:
[
  {
    "molecule": "Nc1ccc(C(=O)O)cc1",
    "assay_value": "> 30 µM"
  },
  {
    "molecule": "CC(=O)OC(C)C[N+](C)(C)C (stereo unspecified)",
    "assay_value": "> 30 µM"
  },
  {
    "molecule": "C[N+](C)(C)CCCCCCCCCC[N+](C)(C)C",
    "assay_value": "> 30 µM"
  },
  {
    "molecule": "C[C@H]1O[C@H](O[C@H]2[C@H](O)[C@@H](O)[C@@H](O[C@H]3[C@H](O)[C@@H](O)C(O)O[C@@H]3CO)O[C@@H]2CO)[C@H](O)[C@@H](O)[C@@H]1N[C@H]1C=C(CO)[C@@H](O)[C@H](O)[C@H]1O (stereo partly specified)",
    "assay_value": "> 30 µM"
  },
  {
    "molecule": "NS(=O)(=O)c1cc2c(cc1Cl)NC(CC1CCCC1)NS2(=O)=O (stereo unspecified) [CYCLOPENTHIAZIDE]",
    "assay_value": "> 30 µM"
  }
]

Record request: AC50 value, item CC(=O)OC[C@H]1O[C@@H](n2ccc(=O)[nH]c2=O)[C@H](OC(C)=O)[C@@H]1OC(C)=O [URIDINE TRIACETATE]
> 30 µM

Record request: AC50 value, item NCc1ccccc1CC(=O)N[C@@H]1C(=O)N2C(C(=O)O)=C(CSc3nnnn3CC(=O)O)CS[C@H]12 [CEFORANIDE]
> 10 µM

Record request: AC50 value, item CCc1ccc(CCOc2ccc(CC3SC(=O)NC3=O)cc2)nc1 (stereo unspecified)
> 3 µM

Record request: AC50 value, item CC(C)=CCC1C(=O)N(c2ccccc2)N(c2ccccc2)C1=O
> 30 µM

Record request: AC50 value, item CN(C)CCCN1c2ccccc2CCc2ccc(Cl)cc21
> 30 µM

Record request: AC50 value, item COCC1=C(C(=O)OC(C)OC(=O)OC(C)C)N2C(=O)[C@@H](NC(=O)/C(=N\OC)c3csc(N)n3)[C@H]2SC1 (stereo partly specified)
> 30 µM

###

experimental_system: Sodium-dependent serotonin transporter (Homo sapiens); further: assay procedure not described here
Sequence (P31645 whole entry): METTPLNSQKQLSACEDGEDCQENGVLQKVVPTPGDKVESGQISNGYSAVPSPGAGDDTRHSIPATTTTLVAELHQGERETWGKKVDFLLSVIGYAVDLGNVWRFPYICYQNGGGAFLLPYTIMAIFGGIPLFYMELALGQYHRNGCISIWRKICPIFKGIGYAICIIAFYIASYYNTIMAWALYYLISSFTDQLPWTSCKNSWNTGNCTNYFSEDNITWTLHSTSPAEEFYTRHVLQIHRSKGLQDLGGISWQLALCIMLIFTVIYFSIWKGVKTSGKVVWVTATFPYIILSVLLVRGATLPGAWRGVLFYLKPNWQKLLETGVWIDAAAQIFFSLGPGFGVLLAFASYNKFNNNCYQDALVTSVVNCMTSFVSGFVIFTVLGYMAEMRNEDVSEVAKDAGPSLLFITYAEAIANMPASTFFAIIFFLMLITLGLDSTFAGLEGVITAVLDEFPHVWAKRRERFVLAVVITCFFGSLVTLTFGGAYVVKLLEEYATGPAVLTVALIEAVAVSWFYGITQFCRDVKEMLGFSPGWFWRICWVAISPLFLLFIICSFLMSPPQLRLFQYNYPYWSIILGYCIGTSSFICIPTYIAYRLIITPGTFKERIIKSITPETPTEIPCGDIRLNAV
AC50 listing for selected compounds.

Past entries and their recorded results:
[
  {
    "compound": "COc1cc2c(cc1OC)C(=O)C(CC1CCN(Cc3ccccc3)CC1)C2 (configuration not stated) [DONEPEZIL]",
    "experimental_system": "Sodium-dependent serotonin transporter (Homo sapiens)",
    "AC50": "> 30 µM"
  },
  {
    "compound": "C=C1C[C@@H]2[C@H](CC[C@]3(C)C(=O)CC[C@@H]23)[C@@]2(C)C=CC(=O)C=C12 [EXEMESTANE]",
    "experimental_system": "Sodium-dependent serotonin transporter (Homo sapiens)",
    "AC50": "> 30 µM"
  },
  {
    "compound": "N[C@@H](C(=O)N[C@@H]1C(=O)N2C(C(=O)O)=C(Cl)CS[C@H]12)c1ccccc1 [CEFACLOR ANHYDROUS]",
    "experimental_system": "Sodium-dependent serotonin transporter (Homo sapiens)",
    "AC50": "> 30 µM"
  },
  {
    "compound": "OCc1cc([C@@H](O)CNCCCCCCOCCOCc2c(Cl)cccc2Cl)ccc1O [VILANTEROL]",
    "experimental_system": "Sodium-dependent serotonin transporter (Homo sapiens)",
    "AC50": "2.8 µM"
  },
  {
    "compound": "C#C[C@]1(O)CC[C@H]2[C@@H]3CCC4=CCCC[C@@H]4[C@H]3CC[C@@]21C [LYNESTRENOL]",
    "experimental_system": "Sodium-dependent serotonin transporter (Homo sapiens)",
    "AC50": "> 30 µM"
  },
  {
    "compound": "O=C(Nc1ccccc1)OCC(CN1CCCCC1)OC(=O)Nc1ccccc1 (configuration not stated) [DIPERODON]",
    "experimental_system": "Sodium-dependent serotonin transporter (Homo sapiens)",
    "AC50": "> 10 µM"
  },
  {
    "compound": "COC(=O)[C@@H]1CC2=CC(=O)CC[C@]2(C)[C@@]23O[C@@H]2C[C@@]2(C)[C@@H](CC[C@@]24CCC(=O)O4)[C@H]13 [EPLERENONE]",
    "experimental_system": "Sodium-dependent serotonin transporter (Homo sapiens)",
    "AC50": "> 30 µM"
  },
  {
    "compound": "CN1CC[C@]23CCCC[C@H]2[C@H]1Cc1ccc(O)cc13 [LEVORPHANOL]",
    "experimental_system": "Sodium-dependent serotonin transporter (Homo sapiens)",
    "AC50": "0.173 µM"
  },
  {
    "compound": "O=C(Cn1ccnc1[N+](=O)[O-])NCc1ccccc1 [BENZNIDAZOLE]",
    "experimental_system": "Sodium-dependent serotonin transporter (Homo sapiens)",
    "AC50": "> 30 µM"
  },
  {
    "compound": "CC(C)NCC1CCc2cc(CO)c([N+](=O)[O-])cc2N1 (configuration not stated) [OXAMNIQUINE]",
    "experimental_system": "Sodium-dependent serotonin transporter (Homo sapiens)",
    "AC50": "39.6 µM"
  }
]

Reported AC50 for Sodium-dependent serotonin transporter (Homo sapiens), given CN1C(=O)CC(C)(c2ccccc2)C1=O (configuration not stated) [METHSUXIMIDE] ?
> 10 µM

Reported AC50 for Sodium-dependent serotonin transporter (Homo sapiens), given O=C(NC[C@H]1CN(c2ccc(N3CCOCC3=O)cc2)C(=O)O1)c1ccc(Cl)s1 [RIVAROXABAN] ?
> 30 µM

Reported AC50 for Sodium-dependent serotonin transporter (Homo sapiens), given CC(C(O)c1ccc(O)cc1)N1CCC(Cc2ccccc2)CC1 (configuration not stated) [IFENPRODIL] ?
0.28 µM

Reported AC50 for Sodium-dependent serotonin transporter (Homo sapiens), given COc1cc(Nc2c(C#N)cnc3cc(OCCCN4CCN(C)CC4)c(OC)cc23)c(Cl)cc1Cl [BOSUTINIB] ?
11 µM

Reported AC50 for Sodium-dependent serotonin transporter (Homo sapiens), given Cc1nc2ccc(CN(C)c3ccc(C(=O)N[C@@H](CCC(=O)O)C(=O)O)s3)cc2c(=O)[nH]1 [RALTITREXED] ?
> 30 µM

These entries and their values trace back to ChEMBL document CHEMBL5291721.
